src = patent US20200369772A1

Please go through the items and note down their pIC50.
Target: T1, recombinant human PD-L2-Fc-biotin (human, UniProt Q9BQ51 20-220, biotin)
T1 chain: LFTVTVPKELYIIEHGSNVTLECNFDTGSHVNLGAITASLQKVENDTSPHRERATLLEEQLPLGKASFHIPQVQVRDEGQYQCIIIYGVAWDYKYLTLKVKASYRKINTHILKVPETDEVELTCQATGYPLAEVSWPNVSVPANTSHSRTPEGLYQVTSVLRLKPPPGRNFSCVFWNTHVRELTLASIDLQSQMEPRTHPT
Test: blocking of hPD-L2 binding to HEK293-hPD-1 cells
Answers are plain numbers, as −log10 of the molar value.

Reference set (4 entries):
BINDER	pIC50
8B5-B1 (antibody, V domains shown, Both formats under this entry) VH: EVQLLESGGGLVQPGGSLKLSCAASGFTFSSYAMFWVRQAPGEGLAWVSAITGSGDHTYYADSVKDHFTISRDNSKNTLYLQMNSLKAEDTAVYYCAKDASGNSYGFPYWYFDLWGRGTLVTVSS VL: QSALTQPASVSGSPGQSITISCTGTSSDVAGYNFVSWYQHHPGKTPKLMIYDVTNRPSGVSTRFSGSKSGNTASLTISGLQAEDEADYYCSSFTSATTLVFGGGTKLTVLG	10.77
11C11-H5 (antibody, V domains shown, Both formats under this entry) VH: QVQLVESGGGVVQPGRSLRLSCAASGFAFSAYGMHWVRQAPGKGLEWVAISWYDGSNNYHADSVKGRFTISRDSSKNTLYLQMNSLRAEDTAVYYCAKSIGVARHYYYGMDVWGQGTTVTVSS VL: SYELTQPPSVSVSPGQTASITCSGEELGDKYACWYQQKPGQSPVLVIYQDSKRPSGIPERFSGSNSGNAATLTISGTQAMDEADYYCQAWDSITVVFGGGTKLTVLG	10.92
7H5-C5 (antibody, V domains shown, Both formats under this entry) VH: QVQLVESGGGLVKPGGSLRLSCAASGFSLSDYYMSWTRQAPGRGLEWVSFISSSGSTIYYVDSVKGRFTISRDHAKNSLYLQINSLRAEDTAVYYCARAQWLPDFDYWGQGTLVTVSS VL: QSALTQPPSASGSPGQSVTISCTGTSSDVSGYNYVSWYQHHPDKAPKLLIYEVNKRPSGVPARFSGSKSGNTASLTVSGLQAEDEADYYCTSFADNNNVVFGGGTKLTVLG	10.59
10A9-D2 (antibody, V domains shown, Both formats under this entry) VH: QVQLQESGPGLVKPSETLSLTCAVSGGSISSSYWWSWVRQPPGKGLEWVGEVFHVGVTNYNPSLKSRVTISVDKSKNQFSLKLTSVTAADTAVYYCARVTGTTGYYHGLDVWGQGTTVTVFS VL: DIQMTQSPSSLSASVGDRVTITCRASQGIRNDLGWYQQKPGKVPKRLIYAASSLQSGIPSRFSGSGSGTEFTLTISSLQPEDFATYYCLQHNNYPRTFGQGTKVEIK	10.92

// next entry
Form: binder = 10D1-G1 (antibody, V domains shown, Both formats under this entry) VH: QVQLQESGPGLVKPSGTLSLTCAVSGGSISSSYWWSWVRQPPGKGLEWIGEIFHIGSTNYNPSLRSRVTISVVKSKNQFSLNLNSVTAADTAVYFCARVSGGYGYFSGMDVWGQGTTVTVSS VL: DIQMTQSPSSLSASVGDRVTITCRASQGIRNDLGWYQQKPGKAPKRLIYGASSLQSGVPSRFSGSGSGTEFTLTISSLQPEDFATYYCLQHNSYPRTFGQGTKVEIK ; pIC50 = 10.85
